Target: Somatostatin receptor type 3 (Homo sapiens, UniProt P32745)
Sequence (P32745 whole entry): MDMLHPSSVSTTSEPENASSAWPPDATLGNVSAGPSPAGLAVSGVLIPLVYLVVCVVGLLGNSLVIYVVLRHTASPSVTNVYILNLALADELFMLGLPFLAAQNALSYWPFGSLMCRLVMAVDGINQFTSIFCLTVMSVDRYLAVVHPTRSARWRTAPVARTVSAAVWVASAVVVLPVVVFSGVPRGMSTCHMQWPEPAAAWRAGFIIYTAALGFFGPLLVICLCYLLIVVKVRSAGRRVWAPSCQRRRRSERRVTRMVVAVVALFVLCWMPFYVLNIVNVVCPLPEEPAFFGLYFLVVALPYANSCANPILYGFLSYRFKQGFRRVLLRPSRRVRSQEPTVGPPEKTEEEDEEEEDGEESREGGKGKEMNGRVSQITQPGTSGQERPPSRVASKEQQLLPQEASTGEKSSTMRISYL
pIC50: −log10 of the molar value.
Classify by measured pIC50: class 1 if it is equal to or exceeds 8, class 0 if it is smaller.

Req: In plain terms: is recorded pIC50 at least 8 for `Cn1cc([C@@H]2N[C@@H](c3nc(-c4ccc(F)cc4)c[nH]3)Cc3c2[nH]c2ccccc32)cn1` ?
Resp: class 0

Req: In plain terms: is recorded pIC50 at least 8 for `Cc1nc(C2(c3noc(C)n3)N[C@@H](c3nc(-c4ccc(F)cc4)c[nH]3)Cc3c2[nH]c2ccccc32)no1` ?
Resp: class 1

Req: In plain terms: is recorded pIC50 at least 8 for `Fc1ccc(-c2c[nH]c([C@H]3Cc4c([nH]c5ccccc45)[C@@H](C4CCOCC4)N3)n2)cc1` ?
Resp: class 1

Req: In plain terms: is recorded pIC50 at least 8 for `Cc1nc([C@H]2N[C@@H](c3nc(-c4ccc(F)cc4)c[nH]3)Cc3c2[nH]c2ccccc32)no1` ?
Resp: class 0

Req: In plain terms: is recorded pIC50 at least 8 for `Cc1nc([C@@H]2N[C@@H](c3nc(-c4ccc(F)cc4)c[nH]3)Cc3c2[nH]c2ccccc32)no1` ?
Resp: class 0

Req: In plain terms: is recorded pIC50 at least 8 for `Cn1cc(C2(c3cnn(C)c3)N[C@@H](c3nc(-c4ccc(F)cc4)c[nH]3)Cc3c2[nH]c2ccccc32)cn1` ?
Resp: class 1

---

I'd appreciate it if you could supply Vd values for the items below.
Test: Volume of distribution at steady state in mouse at 10 mg/kg, po and 4 mg/kg, iv
Details: in vivo
Units required after the number.

Input `Cc1nc([C@@H]2N[C@@H](c3nc(-c4ccc(F)cc4)c[nH]3)Cc3c2[nH]c2ccccc32)no1` . Output Vd: 7.21 L/kg

Input `Cn1cc([C@@H]2N[C@@H](c3nc(-c4ccc(F)cc4)c[nH]3)Cc3c2[nH]c2ccccc32)cn1` . Output Vd: 10.8 L/kg

---

Test: in vivo
Conditions: dog, plasma, po, 2 mg/kg
Reported property: AUC(0-t) (µM·h)
Report the figure in µM·h without appending any unit label.

Input `Cc1nc([C@@H]2N[C@@H](c3nc(-c4ccc(F)cc4)c[nH]3)Cc3c2[nH]c2ccccc32)no1` . Output AUC(0-t): 27.6

---

Target: Somatostatin receptor type 3 (Homo sapiens, UniProt P32745)
Assay: biochemical
Description: Displacement of [125I]SS-28 from human SSTR3 transfected in CHO cells after 60 to 90 mins
Exam item: assign 1 (yes) to entries whose IC50 is below 1 nM and 0 (no) to entries at or above 1 nM. Note that a value of exactly 1 nM receives 0 (no).

Req: API: query returns whether the compound falls strictly under 1 nM in IC50. Query: `Cn1cc(C2(c3cnn(C)c3)N[C@@H](c3nc(-c4ccc(F)cc4)c[nH]3)Cc3c2[nH]c2ccccc32)cn1`
Resp: 1 (yes)

Req: API: query returns whether the compound falls strictly under 1 nM in IC50. Query: `Cc1nc([C@H]2N[C@@H](c3nc(-c4ccc(F)cc4)c[nH]3)Cc3c2[nH]c2ccccc32)no1`
Resp: 0 (no)

Req: API: query returns whether the compound falls strictly under 1 nM in IC50. Query: `Cc1nc([C@@H]2N[C@@H](c3nc(-c4ccc(F)cc4)c[nH]3)Cc3c2[nH]c2ccccc32)no1`
Resp: 0 (no)

Req: API: query returns whether the compound falls strictly under 1 nM in IC50. Query: `Fc1ccc(-c2c[nH]c([C@H]3Cc4c([nH]c5ccccc45)C(c4ccccc4)(c4ccccc4)N3)n2)cc1`
Resp: 1 (yes)

Req: API: query returns whether the compound falls strictly under 1 nM in IC50. Query: `Cc1nc(C2(c3noc(C)n3)N[C@@H](c3nc(-c4ccc(F)cc4)c[nH]3)Cc3c2[nH]c2ccccc32)no1`
Resp: 1 (yes)

Req: API: query returns whether the compound falls strictly under 1 nM in IC50. Query: `Cn1cc([C@@H]2N[C@@H](c3nc(-c4ccc(F)cc4)c[nH]3)Cc3c2[nH]c2ccccc32)cn1`
Resp: 0 (no)

Req: API: query returns whether the compound falls strictly under 1 nM in IC50. Query: `Cn1cc([C@H]2N[C@@H](c3nc(-c4ccc(F)cc4)c[nH]3)Cc3c2[nH]c2ccccc32)cn1`
Resp: 0 (no)

Req: API: query returns whether the compound falls strictly under 1 nM in IC50. Query: `Fc1ccc(-c2c[nH]c([C@H]3Cc4c([nH]c5ccccc45)[C@@H](C4CCOCC4)N3)n2)cc1`
Resp: 0 (no)
